Entry source: patent EP4477673A1

Biological target: T1, IL-2Rβ/γ on M07e cells (human, UniProt P14784 27-551; P31785 23-369)
T1 sequence (looked up) 1: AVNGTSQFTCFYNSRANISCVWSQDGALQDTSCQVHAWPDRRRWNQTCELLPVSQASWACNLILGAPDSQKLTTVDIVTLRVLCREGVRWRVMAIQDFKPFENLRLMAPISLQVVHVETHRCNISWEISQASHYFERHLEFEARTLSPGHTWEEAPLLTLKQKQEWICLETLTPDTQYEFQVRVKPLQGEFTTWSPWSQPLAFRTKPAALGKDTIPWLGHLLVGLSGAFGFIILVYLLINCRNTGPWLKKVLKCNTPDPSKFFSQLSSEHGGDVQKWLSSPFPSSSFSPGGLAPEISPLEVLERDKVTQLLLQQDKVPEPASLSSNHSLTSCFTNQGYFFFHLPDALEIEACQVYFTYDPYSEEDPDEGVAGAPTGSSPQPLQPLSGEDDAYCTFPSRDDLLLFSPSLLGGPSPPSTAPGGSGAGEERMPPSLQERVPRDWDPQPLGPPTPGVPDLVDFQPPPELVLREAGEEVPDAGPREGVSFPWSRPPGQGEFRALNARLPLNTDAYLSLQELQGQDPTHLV
T1 sequence (looked up) 2: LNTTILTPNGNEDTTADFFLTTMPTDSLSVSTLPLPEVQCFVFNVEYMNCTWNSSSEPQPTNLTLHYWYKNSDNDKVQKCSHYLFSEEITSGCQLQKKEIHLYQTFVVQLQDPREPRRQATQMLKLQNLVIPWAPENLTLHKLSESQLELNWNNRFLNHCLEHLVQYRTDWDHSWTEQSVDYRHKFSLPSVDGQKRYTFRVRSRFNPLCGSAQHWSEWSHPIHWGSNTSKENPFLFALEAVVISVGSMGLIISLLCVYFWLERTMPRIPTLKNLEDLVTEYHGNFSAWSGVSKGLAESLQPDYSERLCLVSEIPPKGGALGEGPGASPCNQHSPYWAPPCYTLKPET
Assay: cell-based or functional assay
Provide the reported M07e cell proliferation activity (%) at 12 nM of each item.
The reply should contain only the number, in %.

Form field: reported M07e cell proliferation activity (%) at 12 nM of PEGylated IL-2 mutant (PEG-IL-2v) (ligand, PEGylated (site not stated)) APASSSTKKTQLQLEHLLLDLQMILQGISNYKNPKLTRMLTAKFYMPKKATELKHLQCLEEELKPLEEVLQGAQSKNFHLRPRDLISNINVIVLELKGSETTFMCEYADETATIVEFLNRWITFAQSIISTLT
34.2

Suppose we examine the binder A-N88D (Fc fusion, also called PD-1-IL-2v (N88D); not shown: IgG1 hinge (C220S) + Fc Knob chain (L234A, L235A, S354C, T366W, EU); D356/L358 or E356/M358 ver; IgG1 hinge (C220S) + Fc Hole chain (L234A, L235A, Y349C, T366S, L368A, Y407V; may have H435R, Y436F; EU)) chain (part 1 of 2): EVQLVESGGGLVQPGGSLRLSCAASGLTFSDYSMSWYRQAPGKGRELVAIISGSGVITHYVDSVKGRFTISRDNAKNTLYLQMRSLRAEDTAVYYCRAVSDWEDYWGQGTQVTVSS chain (part 2 of 2): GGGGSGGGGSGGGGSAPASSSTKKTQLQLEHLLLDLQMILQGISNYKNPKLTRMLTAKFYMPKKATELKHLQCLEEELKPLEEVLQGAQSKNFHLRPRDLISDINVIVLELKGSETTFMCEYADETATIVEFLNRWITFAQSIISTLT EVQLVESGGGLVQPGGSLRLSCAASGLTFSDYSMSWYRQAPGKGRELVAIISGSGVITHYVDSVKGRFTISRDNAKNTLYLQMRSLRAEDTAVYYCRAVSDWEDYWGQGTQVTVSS ; what M07e cell proliferation activity (%) at 12 nM value has been reported?
-1.9

Look at this binder and give its reported M07e cell proliferation activity (%) at 12 nM. A-PC (Fc fusion, also called positive control molecule A-PC; PD-1-IL-2v; not shown: IgG1 hinge (C220S) + Fc Knob chain (L234A, L235A, S354C, T366W, EU); D356/L358 or E356/M358 ver; IgG1 hinge (C220S) + Fc Hole chain (L234A, L235A, Y349C, T366S, L368A, Y407V; may have H435R, Y436F; EU)) chain (part 1 of 2): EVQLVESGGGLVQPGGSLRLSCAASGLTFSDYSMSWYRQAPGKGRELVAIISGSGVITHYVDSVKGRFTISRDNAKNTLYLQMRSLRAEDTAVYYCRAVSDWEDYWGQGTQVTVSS chain (part 2 of 2): GGGGSGGGGSGGGGSAPASSSTKKTQLQLEHLLLDLQMILQGISNYKNPKLTRMLTAKFYMPKKATELKHLQCLEEELKPLEEVLQGAQSKNFHLRPRDLISNINVIVLELKGSETTFMCEYADETATIVEFLNRWITFAQSIISTLT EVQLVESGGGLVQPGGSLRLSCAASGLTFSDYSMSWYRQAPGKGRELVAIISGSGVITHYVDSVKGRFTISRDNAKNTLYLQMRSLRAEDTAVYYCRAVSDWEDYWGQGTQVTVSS
41.6
